# ASSAY TARGET: RecQ-like DNA helicase BLM (Homo sapiens, UniProt P54132)
# Sequence (P54132 whole entry, the tested form may be a part): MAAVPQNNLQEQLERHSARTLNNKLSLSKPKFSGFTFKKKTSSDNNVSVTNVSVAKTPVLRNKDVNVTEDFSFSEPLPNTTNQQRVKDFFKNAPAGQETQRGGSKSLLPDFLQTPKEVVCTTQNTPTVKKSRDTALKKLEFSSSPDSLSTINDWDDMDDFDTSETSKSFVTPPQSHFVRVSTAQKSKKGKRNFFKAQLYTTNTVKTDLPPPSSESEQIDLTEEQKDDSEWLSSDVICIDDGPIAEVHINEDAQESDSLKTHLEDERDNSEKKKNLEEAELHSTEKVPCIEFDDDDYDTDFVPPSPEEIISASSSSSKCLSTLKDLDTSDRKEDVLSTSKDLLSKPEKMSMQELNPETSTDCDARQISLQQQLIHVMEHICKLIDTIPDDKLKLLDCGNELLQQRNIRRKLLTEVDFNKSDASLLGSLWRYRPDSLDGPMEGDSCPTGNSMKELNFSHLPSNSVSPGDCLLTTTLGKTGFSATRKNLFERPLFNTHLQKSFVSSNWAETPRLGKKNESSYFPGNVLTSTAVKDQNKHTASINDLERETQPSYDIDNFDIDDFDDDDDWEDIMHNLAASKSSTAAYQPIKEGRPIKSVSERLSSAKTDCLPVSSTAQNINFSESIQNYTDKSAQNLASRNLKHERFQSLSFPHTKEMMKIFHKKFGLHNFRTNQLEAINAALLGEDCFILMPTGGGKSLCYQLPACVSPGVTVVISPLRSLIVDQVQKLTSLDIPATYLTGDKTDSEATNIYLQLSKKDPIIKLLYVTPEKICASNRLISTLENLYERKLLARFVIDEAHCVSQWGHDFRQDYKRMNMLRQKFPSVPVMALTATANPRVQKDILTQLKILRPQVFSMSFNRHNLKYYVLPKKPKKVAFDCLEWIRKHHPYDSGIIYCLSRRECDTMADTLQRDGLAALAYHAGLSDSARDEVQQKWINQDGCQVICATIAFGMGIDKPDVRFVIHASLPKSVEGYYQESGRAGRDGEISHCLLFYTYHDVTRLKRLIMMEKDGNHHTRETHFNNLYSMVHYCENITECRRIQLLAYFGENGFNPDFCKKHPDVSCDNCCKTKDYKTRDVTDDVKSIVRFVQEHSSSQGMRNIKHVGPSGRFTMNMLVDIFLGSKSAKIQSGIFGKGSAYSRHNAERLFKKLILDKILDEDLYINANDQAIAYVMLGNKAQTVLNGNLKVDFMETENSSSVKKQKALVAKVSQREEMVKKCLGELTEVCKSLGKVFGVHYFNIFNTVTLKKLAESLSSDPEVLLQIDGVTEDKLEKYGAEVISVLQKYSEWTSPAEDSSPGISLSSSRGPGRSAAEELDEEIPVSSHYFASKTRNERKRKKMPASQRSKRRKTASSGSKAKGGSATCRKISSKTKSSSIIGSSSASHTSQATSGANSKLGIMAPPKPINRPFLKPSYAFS
# PROCEDURE DETAILS: Binding affinity to His-tagged BLM (642 to 1296 residues) (unknown origin) expressed in Escherichia coli BL21 (DE3) cells assessed as inhibition of protein interaction with 5'-biotin-labeled forked DNA measured after 1 hr by ELISA
REPORTED PROPERTY: IC50

I need IC50 for every entry listed below, if you could help.
1. CCN(CC)CCNc1cc2nc3n(c(=O)c2cc1F)CC/C3=C\c1ccc(N(CC)CC)cc1O
2. CC(C)c1ccc(/C=C2\CCn3c2nc2cc(NCCN(C)C)c(F)cc2c3=O)cc1
3. CCN(CC)CCCNc1cc2nc(/C=C/c3ccc(C(C)C)cc3)n(CCCl)c(=O)c2cc1F

> 20 µM
> 20 µM
8.7 µM

====

# ASSAY TARGET: RecQ-like DNA helicase BLM (Homo sapiens)
# PROCEDURE DETAILS: Inhibition of His-tagged BLM (642 to 1296 residues) (unknown origin) expressed in Escherichia coli BL21 (DE3) cells assessed as reduction in DNA unwinding activity using 5'-biotin-labeled forked DNA as substrate preincubated for 1 hr followed by substrate addition and measured after 1 hr by electrophoretic mobility shift assay
Give measured pIC50 for each item. Keep answers brief.
Numbers only, as −log10 of the molar value.

For orientation, consider the following solved cases.
So what's the measured pIC50 for this one? "CCN(CC)CCCNc1cc2nc(/C=C/c3ccc(C(C)C)cc3)n(CCCl)c(=O)c2cc1F"
6.10

Fill in: pIC50 of "CCN(CC)CCNc1cc2nc(/C=C/c3ccc(C(C)C)cc3)n(C)c(=O)c2cc1F" is ___
5.66

Which value of pIC50 has been reported for "CCN(CC)CCNc1cc2nc3n(c(=O)c2cc1F)CC/C3=C\c1ccc(C(C)C)cc1O" in the records?
5.40

For the compound "CC(C)c1ccc(/C=C2\CCn3c2nc2cc(NCCN(C)C)c(F)cc2c3=O)cc1" , what pIC50 is on record?
5.55

Item under review: "CCc1ccc(/C=C2\CCn3c2nc2cc(NCCN(CC)CC)c(F)cc2c3=O)cc1" . Reported pIC50?
5.49

Query (compound): "CCN(CC)CCNc1cc2nc3n(c(=O)c2cc1F)CC/C3=C\c1ccc(N(C)C)cc1O" ; field requested: pIC50
5.19

Next compound, pIC50 to be filled in.
Form field: reported pIC50 of "CCN(CC)CCCNc1cc2nc(/C=C/c3ccc(CC(C)C)cc3)[nH]c(=O)c2cc1F"
5.33

====

Exercise: for every item that follows, state its recorded pIC50.
# ASSAY TARGET: RecQ-like DNA helicase BLM (Homo sapiens, UniProt P54132)
# PROCEDURE DETAILS: Inhibition of His-tagged BLM (642 to 1296 residues) (unknown origin) expressed in Escherichia coli BL21 (DE3) cells assessed as reduction in DNA unwinding activity using 5'-biotin-labeled forked DNA as substrate preincubated for 1 hr followed by substrate addition and measured after 1 hr by electrophoretic mobility shift assay
One number for each entry, as −log10 of the molar value.

What pIC50 value was documented for this compound, "CCN(CC)CCCNc1cc2nc(/C=C/c3ccc(C(C)C)cc3)n(CC(C)C)c(=O)c2cc1F" ?
5.44

Request the reported pIC50 associated with "CCN(CC)CCCNc1cc2nc(/C=C/c3ccc(C(C)C)cc3)n(C)c(=O)c2cc1F"
5.33

Request the reported pIC50 associated with "CCCc1ccc(/C=C2\CCn3c2nc2cc(NCCN(CC)CC)c(F)cc2c3=O)cc1"
5.48

Now turn to the next compound.
So what does the record say about pIC50 for "CCN(CC)CCNc1cc2nc3n(c(=O)c2cc1F)CC/C3=C\c1ccc(C(C)(C)C)cc1" ?
5.57

====

# ASSAY TARGET: RecQ-like DNA helicase BLM (Homo sapiens, UniProt P54132)
# PROCEDURE DETAILS: Inhibition of His-tagged BLM (642 to 1296 residues) (unknown origin) expressed in Escherichia coli BL21 (DE3) cells assessed as reduction in DNA unwinding activity at <10 uM using 5'-biotin-labeled forked DNA as substrate preincubated for 1 hr followed by substrate addition and measured after 1 hr by electrophoretic mobility shift assay
Calls of active or inactive are those of the source. The calls are words filed in the database; no cut-off is given here.
Outcome field: choose from active, inactive

Please indicate how the test categorized "CCN(CC)CCCNc1cc2nc3n(c(=O)c2cc1F)CC/C3=C\c1ccccc1" .
inactive

Per the assay record, what outcome was assigned to "CC(C)c1ccc(/C=C2\CCc3c2nc2ccccc2c3NCCCN(C)C)cc1" ?
active

Tell me the assay call for "CCN(CC)CCCNc1c2c(nc3ccccc13)/C(=C/c1ccc(C(C)(C)C)cc1)CC2" please.
inactive

New cases:
Fill in: this test's call for CCN(CC)CCNc1cc2nc3n(c(=O)c2cc1F)CCC3Cc1ccc(C(C)(C)C)cc1 (stereo not given) is ___
active

Answer briefly: the call reported for CCN(CC)CCNc1cc2nc3n(c(=O)c2cc1F)CCC3Cc1ccc(N(CC)CC)cc1O (stereo not given) in this assay.
inactive

====

# ASSAY TARGET: RecQ-like DNA helicase BLM (Homo sapiens, UniProt P54132)
# PROCEDURE DETAILS: Inhibition of His-tagged BLM (642 to 1296 residues) (unknown origin) expressed in Escherichia coli BL21 (DE3) cells assessed as reduction in DNA unwinding activity at <10 uM using 5'-biotin-labeled forked DNA as substrate preincubated for 1 hr followed by substrate addition and measured after 1 hr by electrophoretic mobility shift assay
Calls of active or inactive are those of the source. No cut-off for these calls is given here.
Log the outcome using a class from TRUE = active, FALSE = inactive

Assay outcome for CCN(CC)CCNc1cc2nc3n(c(=O)c2cc1F)CCC3Cc1ccc(N(C)C)cc1 (stereo not given) : what was it?
TRUE

Assay outcome for "CCN(CC)CCNc1cc2nc3c(cc2cc1F)CC/C3=C\c1ccc(C(C)C)cc1" : what was it?
TRUE

// outcome(item) with item = "CCN(CC)CCNc1cc2nc3n(c(=O)c2cc1F)CC/C3=C\c1ccc(O)cc1O"
TRUE

Called result for "CCN(CC)CCNc1cc2nc3n(c(=O)c2cc1F)CC/C3=C\c1ccc(OC)cc1"
FALSE

Moving on to another molecule below.
GET /call?item= "CCNc1cc2nc(/C=C/c3ccc(C(C)C)cc3)n(CC)c(=O)c2cc1F" returns the recorded outcome of this test.
FALSE

====

# ASSAY TARGET: RecQ-like DNA helicase BLM (Homo sapiens, UniProt P54132)
# PROCEDURE DETAILS: Inhibition of BLM in human HCT116 cells assessed as increase in gamma-H2AX level at 2 uM measured after 24 hrs by Western blot analysis
# Type: cell-based
# TEST SETTINGS: HCT-116
The source made the active and inactive calls. The rule behind the calls is not given here.
Output constraint: value belongs to Y = active, N = inactive

Status in this test for "CCN(CC)CCNc1cc2nc3n(c(=O)c2cc1F)CC/C3=C\c1ccc(C(C)C)cc1" ?
Y

Please state the recorded outcome for this compound: "CCN(CC)CCNc1cc2nc3n(c(=O)c2cc1F)CC/C3=C\c1ccc(N(CC)CC)cc1O"
N

Please let me know the test result on file for "CCN(CC)CCNc1cc2nc3n(c(=O)c2cc1F)CC/C3=C\c1ccc(C(C)(C)C)cc1" .
Y

What was the test verdict on "CC(C)c1ccc(/C=C2\CCn3c2nc2cc(NCCN(C)C)c(F)cc2c3=O)cc1" ?
N

Dear colleague, could you share the recorded outcome for "CCN(CC)CCNc1cc2nc(/C=C/c3ccc(C(C)C)cc3)n(C)c(=O)c2cc1F" when you have a moment?
N

Query compound follows.
Test call for this compound, please: "CCN(CC)CCCNc1cc2nc(/C=C/c3ccc(C(C)C)cc3)n(CCCl)c(=O)c2cc1F"
Y

====

# ASSAY TARGET: RecQ-like DNA helicase BLM (Homo sapiens)
# PROCEDURE DETAILS: Inhibition of His-tagged BLM (642 to 1296 residues) (unknown origin) expressed in Escherichia coli BL21 (DE3) cells assessed as reduction in DNA unwinding activity using 5'-biotin-labeled forked DNA as substrate preincubated for 1 hr followed by substrate addition and measured after 1 hr by electrophoretic mobility shift assay
For each of the compounds below, state its IC50.
Give bare numbers, in µM.

For the 5 compounds below, give their IC50 values.
1. CCN(CC)CCCNc1c2c(nc3ccccc13)/C(=C/c1ccc(C(C)C)cc1)CC2
2. CCN(CC)CCCNc1cc2nc3n(c(=O)c2cc1F)CC/C3=C\c1ccc(C(C)C)cc1O
3. CCN(CC)CCNc1cc2nc3n(c(=O)c2cc1F)CC/C3=C\c1ccc(C(C)C)cc1
4. CCN(CC)CCNc1cc2nc3n(c(=O)c2cc1F)CC/C3=C\c1ccc(CC(C)C)cc1
5. CCN(CC)CCCNc1cc2nc(/C=C/c3ccc(C(C)C)cc3)n(CC)c(=O)c2cc1F

[8.7, 4.2, 2, 3.1, 2.8]
